Entries and their Herbicidal effect, redroot pigweed
Test system: redroot pigweed (Amaranthus retroflexus)
Experiment: Pre-emergence application, herbicidal effect on redroot pigweed (Table 1)
Assay type: in vivo
Details: 20 g./a., 20 days after application, score 0-5
Experimental: Seeds of barnyard grass (Echinochloa crus-galli) and large crabgrass (Digitaria sanguinalis) as representatives of grassy weeds and those of radish, redroot pigweed (Amaranthus retroflexus), common purslane (Portulaca oleracea) and common lambsquarter (Chenopodium album) as representatives of broad-leaved weeds were individually sowed in flower pots of about 10 cm. in diameter. […] Herbicidal effects were evaluated by the numerals ranging from 0 (not damaged) to 5 (completely killed). […]
Please reply with the value in numeric form only.

Answered cases to consult:
- compound: "CCCCSP(=O)(OCC)SCC(=O)N1CCC(C)CC1 (centres unmarked)"
  Herbicidal effect, redroot pigweed: 4
- compound: "CCCCCSP(=O)(OCCCC)SCC(=O)N1CCCCC1CC (centres unmarked)"
  Herbicidal effect, redroot pigweed: 5
- compound: "CCOP(=O)(SCC(=O)N1CCCCC1C)SC(C)CC (centres unmarked)"
  Herbicidal effect, redroot pigweed: 5
- compound: "C=C(Cl)CSP(=O)(OCC)SCC(=O)N1CCCCC1C (centres unmarked)"
  Herbicidal effect, redroot pigweed: 5

Continue with the compound presented below.
// Herbicidal effect, redroot pigweed value for CCCCCCCCSP(=O)(OCC)SCC(=O)N1CCCCC1C (centres unmarked) : 4

---

test system: redroot pigweed (Amaranthus retroflexus); assay: Pre-emergence application, herbicidal effect on redroot pigweed (Table 1); type: in vivo; design: key: 0: not damaged; 5: completely killed; conditions: 40 g./a., 20 days after application, score 0-5
measured-parameter: Herbicidal effect, redroot pigweed
// return just the number, without any unit appended

- compound: "CCOP(=O)(SCC(=O)N1CCCCC1C)SCC(C)c1ccccc1 (stereo not drawn) [Compound 65]"
  Herbicidal effect, redroot pigweed: 5

The compound CCOP(=O)(SCC(=O)N1CCC(C)CC1)SC(C)CC (stereo not drawn) [Compound 27] showed Herbicidal effect, redroot pigweed equal to 5

For record CCCCOP(=O)(SCCC)SCC(=O)N1CCCCC1CC (stereo not drawn) [Compound 93] the listed Herbicidal effect, redroot pigweed is 5

Per the record, CCCCSP(=O)(OCC)SCC(=O)N1CCCCC1C (stereo not drawn) [Compound 4] has Herbicidal effect, redroot pigweed of 4

compound CCCSP(=O)(OCC)SCC(=O)N1CCCCC1C (stereo not drawn) [Compound 2] , Herbicidal effect, redroot pigweed observed: 5

// recorded Herbicidal effect, redroot pigweed for COP(=S)(NC(C)C)Oc1ccc(Cl)cc1Cl (stereo not drawn) [Zytron, reference compound] : 1

---

system: redroot pigweed (Amaranthus retroflexus); assay: Pre-emergence application, herbicidal effect on redroot pigweed (Table 1); assay type: in vivo; conditions: 10 g./a., 20 days after application, score 0-5
Recorded Herbicidal effect, redroot pigweed values for a group of compounds are listed next.
Note: the reply should be a number with no unit written.

- compound: "CCOP(=O)(SCC(=O)N1CCCCC1C)SCc1ccc(Cl)cc1 (centres unmarked)"
  measured-parameter: "Herbicidal effect, redroot pigweed"
  measured: 3
- compound: "CCOP(=O)(SCC(=O)N1CCCCC1C)SCc1ccccc1 (centres unmarked)"
  measured-parameter: "Herbicidal effect, redroot pigweed"
  measured: 4
- compound: "CCCCOP(=O)(SCCC(C)C)SCC(=O)N1CCCCC1CC (centres unmarked)"
  measured-parameter: "Herbicidal effect, redroot pigweed"
  measured: 4

redroot pigweed (Amaranthus retroflexus) assay, compound CCCCCSP(=O)(OCCCC)SCC(=O)N1CCCCC1CC (centres unmarked) , recorded Herbicidal effect, redroot pigweed = 4

Param item: CCCOP(=O)(SCC(=O)N1CCCCC1CC)SC(C)CC (centres unmarked) ; param system: redroot pigweed (Amaranthus retroflexus); output Herbicidal effect, redroot pigweed: 3

Measured on redroot pigweed (Amaranthus retroflexus), CCOP(=O)(SCC(=O)N1CCCCC1C)SC1CCCCC1 (centres unmarked) has a documented Herbicidal effect, redroot pigweed of 3

---

tested on: redroot pigweed (Amaranthus retroflexus); assay: Pre-emergence application, herbicidal effect on redroot pigweed (Table 1); type: in vivo; conditions: 20 g./a., 20 days after application, score 0-5
measured-parameter: Herbicidal effect, redroot pigweed

Below, 5 compounds whose answers are already recorded.
- compound: "CCOP(=O)(SCC)SCC(=O)N1CCC(C)CC1 (stereo not drawn)"
  Herbicidal effect, redroot pigweed: 4
- compound: "CCCCCSP(=O)(OCCC)SCC(=O)N1CCCCC1CC (stereo not drawn)"
  Herbicidal effect, redroot pigweed: 4
- compound: "CCCCOP(=O)(SCCC)SCC(=O)N1CCCCC1CC (stereo not drawn)"
  Herbicidal effect, redroot pigweed: 5
- compound: "CCCOP(=O)(SCCC)SCC(=O)N1CCCCC1CC (stereo not drawn)"
  Herbicidal effect, redroot pigweed: 5
- compound: "CCOP(=O)(SCC(=O)N1CCCCC1C)SCc1ccc(CC)cc1 (stereo not drawn)"
  Herbicidal effect, redroot pigweed: 4

Input CCCOP(=O)(SCCC(C)C)SCC(=O)N1CCCCC1C (stereo not drawn) . Output Herbicidal effect, redroot pigweed: 5

---

tested on: redroot pigweed (Amaranthus retroflexus); experiment: Pre-emergence application, herbicidal effect on redroot pigweed (Table 1); assay type: in vivo; details: 10 g./a., 20 days after application, score 0-5
measured-parameter: Herbicidal effect, redroot pigweed
Just the number, please.

Observe how each entry below is paired with its result.
- molecule: "CCCCCCCCSP(=O)(OCC)SCC(=O)N1CCCCC1C (centres unmarked)"
  Herbicidal effect, redroot pigweed: 3
- molecule: "CCOP(=O)(SCC)SCC(=O)N1CCCCC1CC (centres unmarked)"
  Herbicidal effect, redroot pigweed: 5
- molecule: "CCCCOP(=O)(SCC(=O)N1CCCCC1CC)SC(C)CC (centres unmarked)"
  Herbicidal effect, redroot pigweed: 3
- molecule: "CCCOP(=O)(SCC(=O)N1CCCCC1C)SC(C)C (centres unmarked)"
  Herbicidal effect, redroot pigweed: 3
- molecule: "CCCCCSP(=O)(OCCC)SCC(=O)N1CCCCC1CC (centres unmarked)"
  Herbicidal effect, redroot pigweed: 3

Value of Herbicidal effect, redroot pigweed reported for the molecule CCOP(=O)(SCC(=O)N1CCCCC1CC)SCc1ccc(CC)cc1 (centres unmarked) is 3

What the record says about CCCOP(=O)(SCCC(C)C)SCC(=O)N1CCCCC1CC (centres unmarked) : Herbicidal effect, redroot pigweed is 3

Looking up CCCCSP(=O)(OCCC)SCC(=O)N1CCCCC1C (centres unmarked) , I see its Herbicidal effect, redroot pigweed listed as 3

Kindly note the recorded Herbicidal effect, redroot pigweed for CCCCCCSP(=O)(OCC)SCC(=O)N1CCCCC1C (centres unmarked) , which is 3

Sure, the documented Herbicidal effect, redroot pigweed for CCCOP(=O)(SC)SCC(=O)N1CCCCC1C (centres unmarked) is 5

---

test system: redroot pigweed (Amaranthus retroflexus); assay: Pre-emergence application, herbicidal effect on redroot pigweed (Table 1); assay type: in vivo; details: 10 g./a., 20 days after application, score 0-5
measured-parameter: Herbicidal effect, redroot pigweed
Output: the number by itself.

- compound: "CCCCOP(=O)(SCCCC)SCC(=O)N1CCCCC1CC (stereo not shown)"
  measured: 2
- compound: "CCCCOP(=O)(SCC)SCC(=O)N1CCCCC1CC (stereo not shown)"
  measured: 5
- compound: "CCOP(=O)(SCCCC(C)C)SCC(=O)N1CCCCC1CC (stereo not shown)"
  measured: 3
- compound: "CCCSP(=O)(OCC)SCC(=O)N1CCCCC1C (stereo not shown)"
  measured: 5
- compound: "CCCSP(=O)(OCC)SCC(=O)N1CCCCC1CC (stereo not shown)"
  measured: 4
- compound: "CCOP(=O)(SCCc1ccccc1)SCC(=O)N1CCCCC1C (stereo not shown)"
  measured: 4
- compound: "CCCCCSP(=O)(OCC)SCC(=O)N1CCCCC1CC (stereo not shown)"
  measured: 4
- compound: "CCCSP(=O)(OCC)SCC(=O)N1CCC(C)CC1 (stereo not shown)"
  measured: 4

// Herbicidal effect, redroot pigweed value for CCCCSP(=O)(OCC)SCC(=O)N1CCCCC1C (stereo not shown) : 4

Recorded result, C=C(C)CSP(=O)(OCC)SCC(=O)N1CCCCC1CC (stereo not shown) , Herbicidal effect, redroot pigweed: 5

Consider C=CCSP(=O)(OCCC)SCC(=O)N1CCC(C)CC1 (stereo not shown) . Its measured Herbicidal effect, redroot pigweed is 4

Quick note, Herbicidal effect, redroot pigweed for CCCOP(=O)(SCC(=O)N1CCCCC1CC)SCC(C)C (stereo not shown) landed at 3

The measured Herbicidal effect, redroot pigweed associated with CCCOP(=O)(SCC(=O)N1CCCCC1C)SCC(C)C (stereo not shown) reads 4

The measured values listed here are drawn from patent US4015974A.
